- assay-name: total protein half-life in vivo (active degradation + dilution); higher = more stable protein
- condition: wild type E. coli NCM3722; growth: P-lim chemostat; doubling time 12 h
Answer each item with its documented total protein half-life in vivo.
Just the number please, in h, no unit attached.

Requested field: total protein half-life in vivo. Item: MMDNMQTEAQPTRTRILNAAREIFSENGFHSASMKAICKSCAISPGTLYHHFISKEALIQAIILQDQERALARFREPIEGIHFVDYMVESIVSLTHEAFGQRALVVEIMAEGMRNPQVAAMLKNKHMTITEFVAQRMRDAQQKGEISPDINTAMTSRLLLDLTYGVLADIEAEDLAREASFAQGLRAMIGGILTAS [P0ACT6] 10.3

I would be grateful if you could share the reported total protein half-life in vivo for MSRPLLQLALDHSSLEAAQRDVTLLKDSVDIVEAGTILCLNEGLGAVKALREQCPDKIIVADWKVADAGETLAQQAFGAGANWMTIICAAPLATVEKGHAMAQRCGGEIQIELFGNWTLDDARDWHRIGVRQAIYHRGRDAQASGQQWGEADLARMKALSDIGLELSITGGITPADLPLFKDIRVKAFIAGRALAGAANPAQVAGDFHAQIDAIWGGARA . 9.91

Give the measured total protein half-life in vivo of MPTKPPYPREAYIVTIEKGKPGQTVTWYQLRADHPKPDSLISEHPTAQEAMDAKKRYEDPDKE [P0AAN5] . 9.63

Give its total protein half-life in vivo value. Item: MSSRVLTPDVVGIDALVHDHQTVLAKAEGGVVAVFANNAPAFYAVTPARLAELLALEEKLARPGSDVALDDQLYQEPQAAPVAVPMGKFAMYPDWQPDADFIRLAALWGVALREPVTTEELASFIAYWQAEGKVFHHVQWQQKLARSLQIGRASNGGLPKRDVNTVSEPDSQIPPGFRG [P0A8J2] 5.6

###

- assay-name: total protein half-life in vivo (active degradation + dilution); higher = more stable protein
- condition: E. coli NCM3722 delta-smpB; growth: N-lim chemostat; doubling time 6 h
Assignment: determine reported total protein half-life in vivo for the given sequences.
The reply should contain only the number, in h.

For MVTFHTNHGDIVIKTFDDKAPETVKNFLDYCREGFYNNTIFHRVINGFMIQGGGFEPGMKQKATKEPIKNEANNGLKNTRGTLAMARTQAPHSATAQFFINVVDNDFLNFSGESLQGWGYCVFAEVVDGMDVVDKIKGVATGRSGMHQDVPKEDVIIESVTVSE , what is its reported total protein half-life in vivo? 4.11

I'd like to know its total protein half-life in vivo. The sequence in question is MATTHLDVCAVVPAAGFGRRMQTECPKQYLSIGNQTILEHSVHALLAHPRVKRVVIAISPGDSRFAQLPLANHPQITVVDGGDERADSVLAGLKAAGDAQWVLVHDAARPCLHQDDLARLLALSETSRTGGILAAPVRDTMKRAEPGKNAIAHTVDRNGLWHALTPQFFPRELLHDCLTRALNEGATITDEASALEYCGFHPQLVEGRADNIKVTRPEDLALAEFYLTRTIHQENT 4.66

###

- assay-name: total protein half-life in vivo (active degradation + dilution); higher = more stable protein
- condition: E. coli NCM3722 delta-clpP delta-lon delta-hslV; growth: N-lim chemostat; doubling time 6 h
Give measured total protein half-life in vivo for each item. Keep answers brief.
Report the figure in h without appending any unit label.

Can you share its total protein half-life in vivo? I mean this sequence: MDKFDANRRKLLALGGVALGAAILPTPAFATLSTPRPRILTLNNLHTGESIKAEFFDGRGYIQEELAKLNHFFRDYRANKIKSIDPGLFDQLYRLQGLLGTRKPVQLISGYRSIDTNNELRARSRGVAKKSYHTKGQAMDFHIEGIALSNIRKAALSMRAGGVGYYPRSNFVHIDTGPARHW [P0AB06] 3.83

Param item = MKTALLLEKLEGQLATLRQRCAPVSQFATLSARFDRHLFQTRATTLQACLDEAGDNLAALRHAVEQQQLPQVAWLAEHLAAQLEAIAREASAWSLREWDSAPPKIARWQRKRIQHQDFERRLREMVAERRARLARVTDLVEQQTLHREVEAYEARLARCRHALEKIENRLARLTR ; retrieve measured total protein half-life in vivo. 4.68

# query: total protein half-life in vivo of entry MSQNLDATAINQIHALISAQGVNEIISKIGADAVALPENFRIHDLEKFNLNRFRFRGALSTASIDDFTRYSKDLADEGTRCFIDADNMRAVSVLNLGTIDEPGHADNTATLKLKKTAPFSALLSVNGERNSQKSLAEWIEDWADYLVGFDANGDAIQATKAAAAIRKITIEANQTADFEDNDFSGKRSLMESVEAKTKDIMPVAFEFKCVPFEGLKERPFKLRLSIITGDRPVLVLRIIQLEAVQEDMANEFRDLLVEKFKDSKVETFIGTFTA 3.03

Reported total protein half-life in vivo, sequence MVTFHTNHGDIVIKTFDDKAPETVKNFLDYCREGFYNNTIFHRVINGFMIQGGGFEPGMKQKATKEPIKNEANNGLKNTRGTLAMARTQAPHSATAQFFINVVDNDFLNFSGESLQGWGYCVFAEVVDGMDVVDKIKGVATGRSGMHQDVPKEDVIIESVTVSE : ____ 4.83

What does the record list as total protein half-life in vivo for MMEFILSHVEKGVMTLTLNRPERLNSFNDEMHAQLAECLKQVERDDTIRCLLLTGAGRGFCAGQDLNDRNVDPTGPAPDLGMSVERFYNPLVRRLAKLPKPVICAVNGVAAGAGATLALGGDIVIAARSAKFVMAFSKLGLIPDCGGTWLLPRVAGRARAMGLALLGNQLSAEQAHEWGMIWQVVDDETLADTAQQLARHLATQPTFGLGLIKQAINSAETNTLDTQLDLERDYQRLAGRSADYREGVSAFLAKRSPQFTGK ? 4.04

What measured total protein half-life in vivo goes with MAKSLFRALVALSFLAPLWLNAAPRVITLSPANTELAFAAGITPVGVSSYSDYPPQAQKIEQVSTWQGMNLERIVALKPDLVIAWRGGNAERQVDQLASLGIKVMWVDATSIEQIANALRQLAPWSPQPDKAEQAAQSLLDQYAQLKAQYADKPKKRVFLQFGINPPFTSGKESIQNQVLEVCGGENIFKDSRVPWPQVSREQVLARSPQAIVITGGPDQIPKIKQYWGEQLKIPVIPLTSDWFERASPRIILAAQQLCNALSQVD ? 3.92

Name the recorded total protein half-life in vivo for MSFELPALPYAKDALAPHISAETIEYHYGKHHQTYVTNLNNLIKGTAFEGKSLEEIIRSSEGGVFNNAAQVWNHTFYWNCLAPNAGGEPTGKVAEAIAASFGSFADFKAQFTDAAIKNFGSGWTWLVKNSDGKLAIVSTSNAGTPLTTDATPLLTVDVWEHAYYIDYRNARPGYLEHFWALVNWEFVAKNLAA [P0AGD3] . 5.3

Name the reported total protein half-life in vivo value associated with the sequence MATNAKPVYKRILLKLSGEALQGTEGFGIDASILDRMAQEIKELVELGIQVGVVIGGGNLFRGAGLAKAGMNRVVGDHMGMLATVMNGLAMRDALHRAYVNARLMSAIPLNGVCDSYSWAEAISLLRNNRVVILSAGTGNPFFTTDSAACLRGIEIEADVVLKATKVDGVFTADPAKDPTATMYEQLTYSEVLEKELKVMDLAAFTLARDHKLPIRVFNMNKPGALRRVVMGEKEGTLITE [P0A7E9] 4.84

Please look up its total protein half-life in vivo: MQKRAIYPGTFDPITNGHIDIVTRATQMFDHVILAIAASPSKKPMFTLEERVALAQQATAHLGNVEVVGFSDLMANFARNQHATVLIRGLRAVADFEYEMQLAHMNRHLMPELESVFLMPSKEWSFISSSLVKEVARHQGDVTHFLPENVHQALMAKLA [P0A6I6] 4.49

Reported total protein half-life in vivo for MRTTSFAKVAALCGLLALSGCASKITQPDKYSGFLNNYSDLKETTSATGKPVLRWVDPSFDQSKYDSIVWNPITYYPVPKPSTQVGQKVLDKILNYTNTEMKEAIAQRKPLVTTAGPRSLIFRGAITGVDTSKEGLQFYEVVPVALVVAGTQMATGHRTMDTRLYFEGELIDAATNKPVIKVVRQGEGKDLNNESTPMAFENIKQVIDDMATDATMFDVNKK : what is it? 5.89

Can you share its total protein half-life in vivo? I mean this sequence: MVLWQSDLRVSWRAQWLSLLIHGLVAAVILLMPWPLSYTPLWMVLLSLVVFDCVRSQRRINARQGEIRLLMDGRLRWQGQEWSIVKAPWMIKSGMMLRLRSDGGKRQHLWLAADSMDEAEWRDLRRILLQQETQR 6.03

Quick one: total protein half-life in vivo for MSEVEFSHEYWMRHALTLAKRAWDEREVPVGAVLVHNNRVIGEGWNRPIGRHDPTAHAEIMALRQGGLVMQNYRLIDATLYVTLEPCVMCAGAMIHSRIGRVVFGARDAKTGAAGSLMDVLHHPGMNHRVEITEGILADECAALLSDFFRMRRQEIKAQKKAQSSTD ? 5.35
